Measured values drawn from the supplement of paper PMC8882468 for this set.

- System: HCI-015 (organoid from a triple-negative breast cancer xenograft)
- TEST_SUMMARY: CTG-3D luminescence at 96 h relative to day-0 seeding control (ratio to day 0); higher = more growth / less cytotoxicity; PDxO 3D drug screen, 96 h, CTG-3D normalised to day-0 seeding control.
- SETTINGS: 12.5 pM; days in culture: 218
Kindly supply the reported CTG-3D luminescence at 96 h values for the records listed here.
Returns: the value as a bare number; no unit string appended.

What measured CTG-3D luminescence at 96 h is associated with O=C(/C=C/c1cccnc1)NCCCCC1CCN(C(=O)c2ccccc2)CC1 [FK866] on HCI-015?
1.79

What measured CTG-3D luminescence at 96 h is associated with O=C(c1ccc(F)c(F)c1Nc1ccc(I)cc1F)N1CC(O)([C@@H]2CCCCN2)C1 [cobimetinib] on HCI-015?
1.8

What measured CTG-3D luminescence at 96 h is associated with CC1(C)CCC(c2ccc(Cl)cc2)=C(CN2CCN(c3ccc(C(=O)NS(=O)(=O)c4ccc(N[C@H](CCN5CCOCC5)CSc5ccccc5)c(S(=O)(=O)C(F)(F)F)c4)cc3)CC2)C1 [navitoclax] on HCI-015?
1.72

What measured CTG-3D luminescence at 96 h is associated with CCN(c1cc(C#CCN2CCOCC2)cc(C(=O)NCc2c(C)cc(C)[nH]c2=O)c1C)[C@H]1CC[C@H](N(C)CCOC)CC1 on HCI-015?
1.78

What measured CTG-3D luminescence at 96 h is associated with CC(C)n1nc(-c2ccc3oc(N)nc3c2)c2c(N)ncnc21 [sapanisertib] on HCI-015?
1.96

What measured CTG-3D luminescence at 96 h is associated with C=CCn1c(=O)c2cnc(Nc3ccc(N4CCN(C)CC4)cc3)nc2n1-c1cccc(C(C)(C)O)n1 [adavosertib] on HCI-015?
1.97
